The measured values listed here are drawn from the Kinase Knowledgebase extract (Sharma et al. 2016).

Reported pIC50 by item:
# MEASURED TARGET: PIK3CD (Human) (UniProt O00329)
# Sequence (O00329 whole entry, looked up): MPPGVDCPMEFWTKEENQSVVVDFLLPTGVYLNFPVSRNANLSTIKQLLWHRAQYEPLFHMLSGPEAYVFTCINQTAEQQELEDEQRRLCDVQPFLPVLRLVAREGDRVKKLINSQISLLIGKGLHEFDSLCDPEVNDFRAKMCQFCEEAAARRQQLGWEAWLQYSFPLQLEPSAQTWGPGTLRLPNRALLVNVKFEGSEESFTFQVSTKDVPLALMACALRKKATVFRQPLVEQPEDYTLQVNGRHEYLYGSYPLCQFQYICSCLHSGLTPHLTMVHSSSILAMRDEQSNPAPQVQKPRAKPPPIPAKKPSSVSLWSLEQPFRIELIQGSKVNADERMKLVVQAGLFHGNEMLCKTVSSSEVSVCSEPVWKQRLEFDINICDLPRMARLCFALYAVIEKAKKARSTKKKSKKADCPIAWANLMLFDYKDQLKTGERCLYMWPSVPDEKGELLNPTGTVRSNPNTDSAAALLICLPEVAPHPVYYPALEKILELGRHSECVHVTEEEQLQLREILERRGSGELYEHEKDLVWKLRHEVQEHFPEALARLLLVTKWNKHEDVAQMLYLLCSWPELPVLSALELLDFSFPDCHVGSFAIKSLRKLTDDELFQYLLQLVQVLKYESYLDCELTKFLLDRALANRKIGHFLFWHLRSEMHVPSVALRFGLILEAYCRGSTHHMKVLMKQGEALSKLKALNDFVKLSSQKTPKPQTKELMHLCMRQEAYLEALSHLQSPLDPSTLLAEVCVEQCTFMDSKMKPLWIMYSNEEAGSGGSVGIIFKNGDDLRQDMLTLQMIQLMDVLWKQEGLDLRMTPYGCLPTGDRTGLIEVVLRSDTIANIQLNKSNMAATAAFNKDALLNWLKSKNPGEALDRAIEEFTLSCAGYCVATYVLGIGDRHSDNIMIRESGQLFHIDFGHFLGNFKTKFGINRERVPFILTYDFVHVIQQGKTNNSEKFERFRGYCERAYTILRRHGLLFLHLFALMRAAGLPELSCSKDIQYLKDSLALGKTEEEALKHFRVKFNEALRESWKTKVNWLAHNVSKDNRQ
# MEASUREMENT PROTOCOL: Enzyme Assay
pIC50: −log10 of the molar value.

- SMILES TEXT: "C#Cc1cccc2nc([C@H](C)NC(=O)c3nccnc3N)n(-c3ccccc3)c(=O)c12"
  MEASURED TARGET: "PIK3CD (Human) (UniProt O00329)"
  pIC50: "6.30 to 9.00"
- SMILES TEXT: "Cc1ccn2nc(N)c(C(=O)N[C@@H](C)c3cc4cccc(C#Cc5cnn(C)c5)c4c(=O)n3-c3ccccc3)c2n1"
  MEASURED TARGET: "PIK3CD (Human) (UniProt O00329)"
  pIC50: "5.00 to 5.30"
- SMILES TEXT: "C[C@H](NC(=O)c1c(N)nn2cccnc12)c1cc2cccc(C#CCN3CCOCC3)c2c(=O)n1-c1ccccc1"
  MEASURED TARGET: "PIK3CD (Human) (UniProt O00329)"
  pIC50: "5.00 to 5.30"

Next:
[in] Return reported pIC50; argument: C[C@H](NC(=O)c1c(N)nn2cccnc12)c1nc2cccc(C#Cc3cnn(C)c3)c2c(=O)n1-c1ccccc1
[out] 5.00 to 5.30

* * *

# MEASURED TARGET: PIK3CB (Human)
pIC50: −log10 of the molar value.
TEST READOUT: pIC50

Completed entries (count: 3):
- SMILES TEXT: "Cc1c(C#Cc2cccc3nc([C@H](C)NC(=O)c4c(N)nn5cccnc45)n(-c4ccccc4)c(=O)c23)cnn1C"
  OBSERVED RESULT: "5.00 to 5.30"
- SMILES TEXT: "C[C@H](NC(=O)c1c(N)nn2cccnc12)c1cc2cccc(C=Cc3ccccc3)c2c(=O)n1-c1ccccc1"
  OBSERVED RESULT: "5.00 to 5.30"
- SMILES TEXT: "C[C@H](NC(=O)c1c(N)nn2cccnc12)c1cc2cccc(C#Cc3cnn(C)c3)c2c(=O)n1C"
  OBSERVED RESULT: "6.00 to 6.30"

[in] Field: pIC50 (PIK3CB (Human)). Entry: C[C@H](NC(=O)c1c(N)nn2cccnc12)c1cc2cccc(C#CCN3CCN(C)CC3)c2c(=O)n1-c1ccccc1
[out] 5.00 to 5.30

[in] Field: pIC50 (PIK3CB (Human)). Entry: C[C@H](NC(=O)c1c(N)nn2cccnc12)c1cc2cccc(C#CC3CCCCC3)c2c(=O)n1-c1ccccc1
[out] 5.00 to 5.30

[in] Field: pIC50 (PIK3CB (Human)). Entry: C[C@H](NC(=O)c1c(N)nn2cccnc12)c1cc2cccc(C#Cc3ccccn3)c2c(=O)n1-c1ccccc1
[out] 5.00 to 5.30

[in] Field: pIC50 (PIK3CB (Human)). Entry: Cc1ccc(-n2c([C@H](C)NC(=O)c3c(N)nn4cccnc34)cc3cccc(C#Cc4cnn(C)c4)c3c2=O)cc1
[out] 5.00 to 5.30

* * *

Reported pIC50 by item:
# MEASURED TARGET: PIK3CD (Human) (UniProt O00329)
# MEASUREMENT PROTOCOL: Enzyme Assay
pIC50: −log10 of the molar value.

Completed entries (count: 2):
- SMILES TEXT: "CC(C)n1c([C@H](C)NC(=O)c2c(N)nn3cccnc23)cc2cccc(C#Cc3cnn(C)c3)c2c1=O"
  MEASURED TARGET: "PIK3CD (Human) (UniProt O00329)"
  pIC50: "5.00 to 5.30"
- SMILES TEXT: "C#Cc1cccc2nc([C@H](C)NC(=O)c3nccnc3N)n(-c3ccc(F)cc3)c(=O)c12"
  MEASURED TARGET: "PIK3CD (Human) (UniProt O00329)"
  pIC50: "5.30 to 6.00"

[in] Return reported pIC50; argument: C[C@H](NC(=O)c1c(N)nn2cccnc12)c1cc2cccc(C#CC3CCCC3)c2c(=O)n1-c1ccccc1
[out] 5.00 to 5.30

[in] Return reported pIC50; argument: Cc1ncc(C#Cc2cccc3cc([C@H](C)NC(=O)c4c(N)nn5cccnc45)n(-c4ccccc4)c(=O)c23)s1
[out] 5.00 to 5.30

[in] Return reported pIC50; argument: CC#Cc1cccc2nc([C@H](C)NC(=O)c3c(N)nn4cccnc34)n(-c3ccccc3)c(=O)c12
[out] 6.00 to 6.30
